These measurements were taken from patent US9682938B2.

# experimental.details: In vitro plasma stability, dog plasma
# Format: in vitro ADME
# measurement.parameters: male, pH 7.4, 5 μM, 37° C., sampling 0-360 minutes, read-out: T1/2 Dog
measurement.kind: log10 of half-life at 5 μM (log10 of the value in min)
# values: log10(half-life at 5 μM), units min

As a guide, the following entries are already answered.
                                   compound            measurement_kind  quantitative_readout
0  CC1=NN(C)C(=O)C1(NO)c1cccc(C)c1 (stereo not drawn) [Compound 98]  log10 of half-life at 5 μM                  1.20
1  COc1ccc(C2=NN(C)C(=O)C2(C)NO)cc1F (stereo not drawn) [Compound 19]  log10 of half-life at 5 μM                  1.98
2  CN1CCN(c2cc(C3=NN(C)C(=O)C3(C)NO)ccc2S(C)(=O)=O)CC1 (stereo not drawn) [Compound 88]  log10 of half-life at 5 μM                  1.62
3  CC1(NO)C(=O)N(c2ccccc2)N=C1c1ccccc1F (stereo not drawn) [Compound 29]  log10 of half-life at 5 μM                  1.76
4  CN1N=C(c2cccc(S(C)(=O)=O)c2)C(C)(NO)C1=O (stereo not drawn) [Compound 48]  log10 of half-life at 5 μM                  1.69

Entry CN1N=C(c2ccc([S+]([O-])C(F)(F)F)cc2)C(C)(NO)C1=O (stereo not drawn) [Compound 35] — recorded log10 of half-life at 5 μM = 1.64

Entry CC1=NN(c2ccc(Br)cc2)C(=O)C1(NO)c1ccccc1 (stereo not drawn) [Compound 47] — recorded log10 of half-life at 5 μM = 1.04

Entry CN1N=C(c2ccc(S(=O)(=O)N3CCOCC3)cc2)C(C)(NO)C1=O (stereo not drawn) [Compound 80] — recorded log10 of half-life at 5 μM = 1.69

Entry Cc1cc(C2=NN(C)C(=O)C2(C)NO)ccc1S(C)(=O)=O (stereo not drawn) [Compound 41] — recorded log10 of half-life at 5 μM = 1.58

Entry CC(C)N1N=C(c2ccc(S(C)(=O)=O)cc2)C(C)(NO)C1=O (stereo not drawn) [Compound 32] — recorded log10 of half-life at 5 μM = 2.17

Entry CC1=NN(C)C(=O)C1(NO)c1ccc([S+](C)[O-])cc1 (stereo not drawn) [Compound 65] — recorded log10 of half-life at 5 μM = 0.90
